This collection of values is drawn from ChEMBL document CHEMBL1153427.

- PROCEDURE TEXT: Oral bioavailability in rhesus monkey
- Assay type: ADME, organism-based, Macaca mulatta
- RECORDED CONDITIONS: in vivo
READOUT TYPE: bioavailability

- CHEMICAL SMILES: "O=C([C@@H]1C[C@H]1c1ccc(C(F)(F)F)cc1)N1CCN(S(=O)(=O)c2cc(-c3nnc[nH]3)cc(C(F)(F)F)c2)CC1"
  READOUT TYPE: "bioavailability"
  RESULT: "< 2%"

* * *

- SYSTEM TESTED: Cannabinoid receptor 1 (Homo sapiens)
- Sequence (P21554 whole entry): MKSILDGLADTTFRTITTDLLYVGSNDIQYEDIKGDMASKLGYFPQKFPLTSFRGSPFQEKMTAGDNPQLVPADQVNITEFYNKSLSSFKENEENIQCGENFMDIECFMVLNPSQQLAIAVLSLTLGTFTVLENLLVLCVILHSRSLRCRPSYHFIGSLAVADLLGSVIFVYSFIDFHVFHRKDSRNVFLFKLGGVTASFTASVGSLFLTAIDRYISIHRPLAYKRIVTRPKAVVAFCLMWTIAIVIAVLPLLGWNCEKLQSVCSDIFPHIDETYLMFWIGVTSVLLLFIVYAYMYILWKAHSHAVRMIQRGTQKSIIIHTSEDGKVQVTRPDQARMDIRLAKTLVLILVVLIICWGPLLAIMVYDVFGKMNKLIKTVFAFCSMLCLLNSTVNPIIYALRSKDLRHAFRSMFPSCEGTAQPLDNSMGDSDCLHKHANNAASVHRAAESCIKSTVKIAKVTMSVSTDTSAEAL
- PROCEDURE TEXT: Displacement of [3H]SR141716 from human recombinant CB1R expressed in CHO cells
- Format: cell-based
READOUT TYPE: IC50 (nM)

- CHEMICAL SMILES: "O=C(c1ccc(C(F)(F)F)cc1)N1CCN(S(=O)(=O)c2cc(C3CC3)cc(C(F)(F)F)c2)CC1"
  QUANTITATIVE RESULT: 47
- CHEMICAL SMILES: "O=C(Cc1ccc(C(F)(F)F)cc1)N1CCN(S(=O)(=O)c2cc(C3CC3)cc(C(F)(F)F)c2)CC1"
  QUANTITATIVE RESULT: 0.5
- CHEMICAL SMILES: "O=C([C@@H]1C[C@H]1c1ccc(C(F)(F)F)cc1)N1CCN(S(=O)(=O)c2cc(C3CC3)cc(C(F)(F)F)c2)CC1"
  QUANTITATIVE RESULT: 0.1
